Test system: Escherichia coli TOP10;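 also: peptides expressed intracellularly from a pBAD plasmid library in pooled LB shake-flask culture, induced with 0.3% L-arabinose, DNA abundance read by NGS, three biological replicates, DESeq2 with apeglm shrinkage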
Experiment: shrunken log2 fold change of peptide-encoding DNA abundance (4.5 h post-induction vs induction); higher = less antimicrobial activity (less host growth inhibition)
Conditions: time post-induction: 4.5 h; library: site-saturation at positions 5, 18, 19, 20
So I've got a bunch of sequences here, and I need their shrunken log2 fold change values.

RRIRCRPPRLPRPRPRPEIYPRP    -0.0456
RRIRQRPPRLPRPRPRPWLEPRP    0.0751
RRIRLRPPRLPRPRPRPMHCPRP    -0.00782

For every item below, please supply its shrunken log2 fold change.
1. RRIRSRPPRLPRPRPRPAPDPRP
2. RRIRNRPPRLPRPRPRPWYTPRP
3. RRIRYRPPRLPRPRPRPFGQPRP
4. RRIRCRPPRLPRPRPRPERKPRP
5. RRIRQRPPRLPRPRPRPYPHPRP

0.369
0.0349
-0.219
0.086
-0.0795
